Test system: NCI-H460 lung
Assay: NCI-60 one-dose screen, 48 h (100 = growth as untreated, 0 = no growth, -100 = all killed)
Settings: 10 µM unless noted
Description: Growth inhibition of the NCI-H460 human Non-Small Cell Lung tumor cell line is measured as a screen for anti-cancer activity. Cells are grown in 96 well plates and exposed to the test compound for 48 hours. Compounds are tested at a single concentration, which is 10^-5 M for most compounds. The reported endpoint is percent growth (GI% or GIPRCNT), where numbers from 0 - 100% represent growth inhibition, and numbers from -100% - 0 represent cell death. […]
This is part of a sample that, as a whole, favours compounds with a hit. Of some 83,000 tested, about 20% had one in any assay.
Exercise: for every item that follows, state its recorded growth.
Answer in %, number only, no unit symbol.

Query block: Which growth is listed for CC(C)SC1=NC(=C(C(=N1)NC2=ClC=CC=C2)C#N)C3=CC=CC=C3 ?
Result block: 22.2

Query block: Which growth is listed for CS(=O)(=O)c1ccc2c(c1)c1c(n2Cc2ccc(Cl)cc2)CCCC1 ?
Result block: 71.6

Query block: Which growth is listed for Oc1ccc(-c2nnc(SCc3ccc(O)c4ncccc34)o2)cc1 ?
Result block: 2.22

###

Tested on: SK-MEL-5 melanoma
Experiment: NCI-60 one-dose screen, 48 h (100 = growth as untreated, 0 = no growth, -100 = all killed)
Details: 10 µM unless noted
Compounds without any hit were thinned out: in the full panel of roughly 83,000, 20% have a hit.
Exercise: for every item that follows, state its recorded growth.
Answer in %, number only, no unit symbol.

Query block: API: value(readout=growth, system=SK-MEL-5 melanoma) for record COC(=O)c1nc(-c2ccc(C)cc2)oc1S(=O)(=O)N1CCN(c2oc(-c3ccccc3)nc2C#N)CC1
Result block: 100

Query block: API: value(readout=growth, system=SK-MEL-5 melanoma) for record CCN1CCN(c2cc(C(=O)Nc3nc4ccc(Oc5ccnc(C(=O)NC)c5)cc4s3)cc(C(F)(F)F)c2)CC1
Result block: 63.6

Query block: API: value(readout=growth, system=SK-MEL-5 melanoma) for record O=C(/C=C/c1cn(-c2ccccc2)nc1-c1ccc(Cl)cc1)c1cc2ccccc2oc1=O
Result block: 72

###

Tested on: SK-MEL-5 melanoma
Assay: NCI-60 one-dose screen, 48 h (100 = growth as untreated, 0 = no growth, -100 = all killed)
Details: 10 µM unless noted
The panel holds about 83,000 compounds, 20% with a hit somewhere; the sample as a whole holds those more often.
Classify by measured growth: condition met if it is equal to or exceeds 30%, condition not met if it is smaller.

Query block: Please indicate if the recorded growth for C(=C(\C1=NCCN1)n1cnc2ccccc21)/c1ccc2ccccc2c1 meets or exceeds 30%.
Result block: condition met

Query block: Please indicate if the recorded growth for O=C1c2c(c3c4cccnc4[nH]c3c3ccc4ccccc4c23)C(=O)N1CCN1CCOCC1 meets or exceeds 30%.
Result block: condition met

Query block: Please indicate if the recorded growth for CCCC(=O)NC(c1cccnc1)c1cc(C(C)=O)c2cccnc2c1O (stereo not drawn) meets or exceeds 30%.
Result block: condition not met

Query block: Please indicate if the recorded growth for CN1CCN(c2ccc(NC(=O)Nc3ccc4c(ccn4-c4cccc(C(N)=O)n4)c3)cc2C(F)(F)F)CC1 meets or exceeds 30%.
Result block: condition met

Query block: Please indicate if the recorded growth for Nc1nc(-c2cccc([N+](=O)[O-])c2)c(N=Nc2ccccc2[N+](=O)[O-])s1 meets or exceeds 30%.
Result block: condition met

Query block: Please indicate if the recorded growth for Cc1cnc2nc(NN)[nH]n12 meets or exceeds 30%.
Result block: condition met

Query block: Please indicate if the recorded growth for O=C1/C(=C/c2ccc([N+](=O)[O-])cc2)SC(=Nc2ccccc2)N1Nc1ccccc1 meets or exceeds 30%.
Result block: condition met

Query block: Please indicate if the recorded growth for COc1cc2c3c(n(CCCN4CCC[C@H]4C(N)=O)c(=O)c2cc1OC)-c1cc2c(cc1C3=O)OCO2 meets or exceeds 30%.
Result block: condition not met

Query block: Please indicate if the recorded growth for CCN1CCN(Cc2ccc(C(=O)Nc3nc4ccc(Oc5ccnc(C(=O)NC)c5)cc4s3)cc2C(F)(F)F)CC1 meets or exceeds 30%.
Result block: condition not met

Query block: Please indicate if the recorded growth for CC(C)=CCc1c(O)c(CC=C(C)C)c2c(c1O)C(=O)C1=C[C@@H]3C[C@H]4C(C)(C)O[C@@](C/C=C(\C)C(=O)O)(C3=O)[C@@]14O2 meets or exceeds 30%.
Result block: condition not met

Query block: Please indicate if the recorded growth for C=CCn1c(SCC(=O)Nc2cccc(C(=O)/C=C/c3ccc(Cl)cc3)c2)nc2ccccc2c1=O meets or exceeds 30%.
Result block: condition met

Query block: Please indicate if the recorded growth for CNC(=O)c1cc(Oc2ccc3nc(NC(=O)c4ccc(CN5CCN(C)CC5)c(C(F)(F)F)c4)sc3c2)ccn1 meets or exceeds 30%.
Result block: condition met

Query block: Please indicate if the recorded growth for O=C(CN1C(=O)CSC1=O)Nc1ccc(C(=O)/C=C/c2cc3ccccc3nc2Cl)cc1 meets or exceeds 30%.
Result block: condition met

Query block: Please indicate if the recorded growth for COCCOc1ccc(-c2csc(NC(=O)CN3CCN(CCO)CC3)n2)cc1NS(=O)(=O)c1cccc2c(N(C)C)cccc12 meets or exceeds 30%.
Result block: condition met

Query block: Please indicate if the recorded growth for Cc1cc(-c2ccc3nc(N)sc3c2)nc2ccc3[nH]ncc3c12 meets or exceeds 30%.
Result block: condition not met

Query block: Please indicate if the recorded growth for O=C(Nc1ccccc1)Nc1nc2ccc([N+](=O)[O-])cc2s1 meets or exceeds 30%.
Result block: condition not met

Query block: Please indicate if the recorded growth for C=CCn1c(SCC(=O)Nc2cccc(C(=O)/C=C/c3ccccc3)c2)nc2ccccc2c1=O meets or exceeds 30%.
Result block: condition met

Query block: Please indicate if the recorded growth for NC(=O)c1c(NC(=O)c2cccc(OC(F)(F)F)c2)sc2c1CCC(=O)C2 meets or exceeds 30%.
Result block: condition met

Query block: Please indicate if the recorded growth for N#C/C(=C\c1ccc(Cl)cc1Cl)C(N)=O meets or exceeds 30%.
Result block: condition met

Query block: Please indicate if the recorded growth for COc1cc(/C=C/C(=O)c2ccc(NC(=O)CSc3nnc(-c4ccc5nc(-c6ccccc6)[nH]c5c4)o3)cc2)cc(OC)c1OC meets or exceeds 30%.
Result block: condition met

Query block: Please indicate if the recorded growth for COc1cc(OC)c(S(N)(=O)=O)cc1C(=O)/C=C/c1ccccc1 meets or exceeds 30%.
Result block: condition not met

Query block: Please indicate if the recorded growth for NS(=O)(=O)Oc1ccc2nc(Nc3ccc(F)c(F)c3)ccc2c1 meets or exceeds 30%.
Result block: condition met

Query block: Please indicate if the recorded growth for COc1ccc(-c2cc(-c3ccc(Cl)cc3)nc3nc(N)nn23)cc1 meets or exceeds 30%.
Result block: condition met
